# Tested on: rodent lifetime carcinogenesis bioassay, tumor incidence TD50
# experiment: carcinogenic potency in animals, long-term in vivo studies, CPDB compilation (AID 1745844)
# experimental-conditions: mouse; strain B6C3F1; males; in feed; site: lung; lesion: alveolar/bronchiolar adenoma + alveolar/bronchiolar carcinoma; dosed 103 weeks; study length 105 weeks
TD50 reference
readout-label: TD50 (mg/kg/day)

CCCOC(=O)c1cc(O)c(O)c(O)c1 ... 55600
Oc1ccc2ccccc2c1N=Nc1ccccc1 ... 1080
OB(O)O ... 38600
CO[C@H]1[C@@H](O)[C@@H](CO)OC(OC2C3CO[C@H]2[C@H](O)C(C)O3)[C@@H]1O (some centres undefined) ... 102000

====

# Tested on: rodent lifetime carcinogenesis bioassay, tumor incidence TD50
# experiment: carcinogenic potency in animals, long-term in vivo studies, CPDB compilation (AID 1745844)
# experimental-conditions: mouse; strain Swiss albino; females; in drinking water; site: liver; lesion: several types; types named in the paper; dosed 105 weeks; study length 105 weeks
readout-label: TD50 (mg/kg/day)

C=CCNN ... 234

====

# System: rodent lifetime carcinogenesis bioassay, tumor incidence TD50
# experiment: carcinogenic potency in animals, long-term in vivo studies, CPDB compilation (AID 1745844)
# experimental-conditions: rat; strain Wistar; males; in drinking water; site: subcutaneous tissue; lesion: fibrosarcoma; dosed 87 weeks; study length 100 weeks
readout-label: TD50

CC(=O)OC1CC(C)OC(C)O1 (stereo unspecified) ... 6770 mg/kg/day

====

# Tested on: rodent lifetime carcinogenesis bioassay, tumor incidence TD50
# experiment: carcinogenic potency in animals, long-term in vivo studies, CPDB compilation (AID 1745844)
# experimental-conditions: rat; strain Fischer 344; males; in drinking water; site: pharynx + tongue; lesion: squamous-cell papilloma; dosed 88 weeks; study length 92 weeks
readout-label: TD50 (mg/kg/day)

COc1cc(-c2ccc(N)c(OC)c2)ccc1N ... 4.49

====

# System: rodent lifetime carcinogenesis bioassay, tumor incidence TD50
# experiment: carcinogenic potency in animals, long-term in vivo studies, CPDB compilation (AID 1745844)
# experimental-conditions: mouse; strain Swiss; females; inhaled; site: extrahepatic tissue; lesion: angiosarcoma; dosed 30 weeks; study length 77 weeks
readout-label: TD50

C=CCl ... 736 mg/kg/day

====

# System: rodent lifetime carcinogenesis bioassay, tumor incidence TD50
# experiment: carcinogenic potency in animals, long-term in vivo studies, CPDB compilation (AID 1745844)
# experimental-conditions: mouse; strain B6C3F1; males; in feed; site: liver; lesion: hepatoblastoma; dosed 78 weeks; study length 78 weeks
readout-label: TD50

Brc1cc(Br)c(-c2c(Br)c(Br)c(Br)c(Br)c2Br)c(Br)c1Br ... 35.4 mg/kg/day

====

# Tested on: rodent lifetime carcinogenesis bioassay, tumor incidence TD50
# experiment: carcinogenic potency in animals, long-term in vivo studies, CPDB compilation (AID 1745844)
# experimental-conditions: rat; strain Fischer 344; females; in feed; site: liver; lesion: neoplastic nodule; dosed 78 weeks; study length 106 weeks
readout-label: TD50

c1ccc(NNc2ccccc2)cc1 ... 18.1 mg/kg/day

====

# Test system: rodent lifetime carcinogenesis bioassay, tumor incidence TD50
# experiment: carcinogenic potency in animals, long-term in vivo studies, CPDB compilation (AID 1745844)
# experimental-conditions: mouse; strain CD-1 HaM/ICR; males; in feed; site: any site (literature study); lesion: several types; types named in the paper; dosed 77 weeks; study length 94 weeks
The source made the active and inactive calls. The rule behind the calls is not given here.
readout-label: TD50

Nc1ccc(Cc2ccc(N)c(Cl)c2)cc1Cl ... 97.9 mg/kg/day
Nc1c(F)c(N)c(F)c(F)c1F ... 331 mg/kg/day
O=[N+]([O-])c1ccc(Cl)c([N+](=O)[O-])c1 ... 255 mg/kg/day (inactive)
Nc1ccc(-c2ccc(N)c(N)c2)cc1N ... 224 mg/kg/day
